- System: johnsongrass (Sorghum halepense)
- protocol description: Test C greenhouse herbicide test, pre- and postemergence
- Type: in vivo
- assay context: Preemergence, 250 g ai/ha; scale 0 to 100 (0 no effect, 100 complete control)
Recorded Johnsongrass plant response rating for the following compounds

| compound | target system | Johnsongrass plant response rating |
| --- | --- | --- |
| CC(=O)Oc1c(C)nn(C)c(=O)c1-c1c(C)sc2c(C)cc(C)cc12 [Compound 27] | johnsongrass (Sorghum halepense) | 25 |
| CCC(=O)Oc1c(C)nn(C)c(=O)c1-c1c(C)sc2ccc(Cl)cc12 [Compound 109] | johnsongrass (Sorghum halepense) | 65 |
| CCOC(=O)Oc1c(C)nn(C)c(=O)c1-c1c(C)sc2c(C)cc(C)cc12 [Compound 83] | johnsongrass (Sorghum halepense) | 70 |
| COC(=O)Oc1c(Br)nn(C)c(=O)c1-c1c(C)ccc2ccccc12 [Compound 137] | johnsongrass (Sorghum halepense) | 20 |
| Cc1ccc2sc(C)c(-c3c(O)c(C)nn(C)c3=O)c2c1 [Compound 1] | johnsongrass (Sorghum halepense) | 5 |
| Cc1cc(C)c2sc(C)c(-c3c(OC(=O)OC(C)C)c(C)nn(C)c3=O)c2c1 [Compound 67] | johnsongrass (Sorghum halepense) | 30 |
| Cc1cc(C)c2sc(C)c(-c3c(OC(=O)OCCCl)c(C)nn(C)c3=O)c2c1 [Compound 85] | johnsongrass (Sorghum halepense) | 40 |
| C#CCOC(=O)Oc1c(C)nn(C)c(=O)c1-c1c(C)sc2ccc(C)cc12 [Compound 87] | johnsongrass (Sorghum halepense) | 40 |
| Cc1ccc2ccccc2c1-c1c(O)c(Cl)nn(C)c1=O [Compound 125] | johnsongrass (Sorghum halepense) | 70 |
| Cc1cc(C)c2ccccc2c1-c1c(OS(C)(=O)=O)c(C)nn(C)c1=O [Compound 154] | johnsongrass (Sorghum halepense) | 75 |
